Tested on: NCI-H929 (human myeloma cells)
Test: CCK-8 cell proliferation assay, NCI-H929
Assay type: cell-based
Conditions: 72 h incubation, 11 concentrations from 5000 nM, 3-fold
Simple rule here: IC50 less than 10 nM is Met, otherwise Not met.

Here's what some known entries look like.
INSERT INTO measurements (record_smiles, qualitative_label) VALUES
  ('CC(C)Nc1nc(C#N)cc2cnc(N[C@@H]3CC[C@@H](N)C3)cc12', 'Not met'),
  ('CC(C)Nc1nc(C#N)cc2cnc(N[C@H]3CC[C@H](N)C3)nc12', 'Not met'),
  ('CC(C)Nc1nc(C(F)F)cc2cnc(N[C@H]3CC[C@H](N)C3)cc12', 'Met');

INPUT: Record CC(C)Nc1nc(C#N)cc2cnc(N[C@H]3CC[C@H](N)C3)cc12 : is its IC50 strictly below 10 nM?
OUTPUT: Not met

INPUT: Could you please tell me whether IC50 recorded for CC(C)Nc1nc(C#N)cc2cnc(N[C@H]3CCCNC3)nc12 is less than 10 nM?
OUTPUT: Not met

INPUT: Hello, is IC50 of the following compound strictly smaller than 10 nM? CC(C)Nc1nc(C#N)cc2cnc(N[C@H]3CC[C@H](O)C3)cc12
OUTPUT: Met
